target: biotinylated ZF456 protein (BCL11A) (Homo sapiens, UniProt Q9H165, biotin (site not stated)); assay: AlphaScreen or HTRF
Sequence (Q9H165 737-835): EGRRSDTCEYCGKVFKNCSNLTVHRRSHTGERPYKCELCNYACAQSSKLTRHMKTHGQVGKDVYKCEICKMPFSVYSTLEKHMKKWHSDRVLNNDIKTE
Parameter Measured: pKd
Entry type: numeric. Quantity: pKd, the -log10 of concentration in molar units.

Binder	pKd
Nb6101-19 (VHH) VHH: RVQLVESGGGLVQAGGSLRLSCAADGFDFKSYAMGWYRQAPGREDELVAAITASGDYTYYADSVKGRFTISRDNAKNTVYLQMNSLKPDDTAVYYCAALSYVAEGYWGQGTQVTVSS	7.66
Nb6101-22 (VHH) VHH: RMQLVESGGGLVQAGGSLRLSCAADGFDFSSYAMGWYRQAPGREDELVAAITASGSYTYYSDSVKGRFTISRDNAKNTVYLQMNSLKPDDTAVYYCAALSYVAEGYWGQGTQVTVSS	7.26
Nb6101-20 (VHH) VHH: RVQLVESGGGLVQAGGSLRLSCAADGFDFKSYAMGWYRQAPGYEDELVAAITASGSYTYYSDSVKGRFTISRDNAKNTVYLQMNSLKPEDTAVYYCAALSYVAEGYWGQGTQVTVSS	7.11

Now look at this entry.
What value of pKd has been reported for the following binder? Nb6101-14 (VHH) VHH: RVQLVESGGGLVQAGGSLRLSCAADGFDFSSYAMGWYRQAPGYEDELVAAITASGSYTYYSDSVKGRFTISRDNAKNTVYLQMNSLKPEDTAVYYCAALSYVAEGYWGQGTQVTVSS
7.57

Entry source: paper PMC9933118
